Origin of the recorded values: patent US6395762B1

This listing pairs compounds with measured IA(β3).
# TARGET OF ASSAY: human β3-AR (Homo sapiens)
# Construct: Full-length β3-AR clones (402 amino acids) containing the last 6 amino acids of hβ3-AR; expressed in transfected cells; host or cells: CHO (Chinese hamster ovary) cells
# Sequence (P13945 whole entry): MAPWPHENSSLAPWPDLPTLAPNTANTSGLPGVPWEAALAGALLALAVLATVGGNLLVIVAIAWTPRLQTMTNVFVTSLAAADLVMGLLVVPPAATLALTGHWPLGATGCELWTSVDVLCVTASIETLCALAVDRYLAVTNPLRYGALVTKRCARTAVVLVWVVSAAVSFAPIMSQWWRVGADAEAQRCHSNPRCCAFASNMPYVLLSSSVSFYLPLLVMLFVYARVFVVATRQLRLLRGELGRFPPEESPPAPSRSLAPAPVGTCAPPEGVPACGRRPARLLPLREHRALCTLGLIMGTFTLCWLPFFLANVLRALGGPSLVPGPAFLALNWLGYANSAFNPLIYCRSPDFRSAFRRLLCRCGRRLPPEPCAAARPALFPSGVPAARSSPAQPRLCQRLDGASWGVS
# PROTOCOL TEXT: cAMP accumulation (SPA) in CHO cells transfected with human β3-AR
# Format: cell-based
# COND: maximal response of compound relative to maximal response of isoproterenol at 10^−5 M; CHO cells transfected with human β3-AR
Could you keep your reply to the number by itself?

// solved cases for IA(β3) follow
>>> numeric_result("CCCCCCNC1=NS(=O)(=O)N=C1Nc1cccc(CC(C)NC[C@H](O)c2cccc(Cl)c2)c1 (stereo partly drawn) [Compound 9]")
0.74
>>> numeric_result("CCCCCCCCCCNC1=NS(=O)(=O)N=C1Nc1ccc(CC(C)NC[C@H](O)COc2ccccc2)cc1 (stereo partly drawn) [Compound 20]")
0.39
>>> numeric_result("COc1ccc(CCNC2=NS(=O)(=O)N=C2Nc2ccc(CC(C)NC[C@H](O)COc3ccc(O)cc3)cc2)cc1 (stereo partly drawn) [Compound 36]")
0.91
>>> numeric_result("CCCCCCCCNC1=NS(=O)(=O)N=C1Nc1cccc(CC(C)NCC(O)c2cccc(Cl)c2)c1 (stereo not drawn) [Compound 2]")
0.42
>>> numeric_result("CCCCCCCCNC1=NS(=O)(=O)N=C1Nc1ccc(CC(C)NC[C@H](O)COc2cccc3[nH]c4ccccc4c23)cc1 (stereo partly drawn) [Compound 21]")
0.64
>>> numeric_result("CCCCCCCCNc1c(Nc2ccc(CC(C)NC[C@H](O)COc3ccc(O)cc3)cc2)c(=O)c1=O (stereo partly drawn) [Compound 14]")
0.81

Tell me the measured IA(β3) of CCCCCCCCNC1=NS(=O)(=O)N=C1Nc1ccc(CC(C)NC[C@H](O)c2ccc(OCc3ccccc3)c(NS(C)(=O)=O)c2)cc1 (stereo partly drawn) [6 (step B)] , please. 0.32

Another compound to check: CN(C)c1ccc(C2(CNC3=NS(=O)(=O)N=C3Nc3ccc(CC(C)(C)NCC(O)c4ccc(O)c(NS(C)(=O)=O)c4)cc3)CCCC2)cc1 (stereo not drawn) [Compound 34] 1.0

Next compound up: CCCCCCCCNC1=NS(=O)(=O)N=C1Nc1ccc(CC(C)NC[C@H](O)c2ccc(O)c(NS(C)(=O)=O)c2)cc1 (stereo partly drawn) [Compound 6] 1.26

Moving on to the next compound: CCCCCCCCNC1=NS(=O)(=O)N=C1Nc1ccc(CC(C)(C)NC[C@H](O)COc2ccc(OCc3ccccc3)cc2)cc1 [4 (step F)] 0.37
